Listed here: items and their measured cell number change.
# procedure summary: qHTS Assay for Lipid Storage Modulators in Drosophila S3 Cells;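 as to cell number change: cells counted by Cell Tracker Red CMTPX staining in the red channel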
# experimental setup: BODIPY lipid droplet fluorescence, 18-24 h, cells fed with added oleic acid; measured here: cell count max response
The whole screen tested about 320,000 compounds, of which about 2,100 (0.66%) were called active. Another 53% or so got no clear call; they are omitted. Shown is part of a subset that was picked to be rich in actives.
quantity measured: cell number change (%)

>>> df
                                    compound  uom  meas_value
 0         Cn1c(SCc2ccc(Br)cc2)nc2ccccc2c1=O    %       -15.2
 1  CS(=O)(=O)c1ccc2sc(NC(=O)c3cc4ccccc4o3)nc2c1    %       -15.1
 2         Cc1ccc(C)c(C2C(=O)c3ccccc3C2=O)c1    %       -8.26
 3             N#Cc1ccc(COc2cccc3cccnc23)cc1    %       -22.2
 4  COCCn1c(SCC(=O)Nc2cc(C)on2)nc2c(c1=O)SC(C)C2 (stereo not given)    %        9.04
 5     NC(=O)c1c(NC(=O)c2ccc(F)cc2)sc2c1CCC2    %        5.61
 6  CCOc1ccc(CCNC(=O)C2CCN(c3nn4c(=O)cc(C)nc4s3)CC2)cc1OCC    %        3.17
 7     O=c1[nH]c(COc2ccc(Br)cc2Cl)nc2ccccc12    %         -15
 8     COc1ccccc1C(=O)Nc1sc2c(c1C(N)=O)CCCC2    %       -22.3
 9  Cc1cc(=O)n2nc(N3CCC(C(=O)N4CCN(C)CC4)CC3)sc2n1    %        5.43
10  COc1cccc(NC(=O)CN(C)C(=O)CSc2ccc3c(c2)OCCO3)c1    %        2.81
11       CCOCCCNC(=O)CN1C(=O)c2cccc3cccc1c23    %       -5.29
12  COc1cccc(NC(C)(C)c2nnnn2-c2c(C)cccc2C)c1    %        12.6
13  Cc1cc(=O)n2nc(N3CCCC(C(=O)N4CCN(C)CC4)C3)sc2n1 (stereo not given)    %       -3.39
14  O=C(NCc1ccc(F)cc1)C1CC(=O)N(CCc2ccccc2)C1 (stereo not given)    %        15.8
15        NC(=O)c1c(NC(=O)c2ccccc2)sc2c1CCC2    %       -24.3
16  COc1ccc(-c2csc(Nc3ccccc3)[n+]2CC(O)c2ccc([N+](=O)[O-])cc2)cc1 (stereo not given)    %       -3.41
17  Cc1ccc(-c2nc(CSc3nc4ccccc4c(=O)n3C)cs2)cc1    %        13.2
18  Oc1[nH]c2ccccc2c1N=Nc1c(F)c(F)c(Cl)c(F)c1F    %      -0.455
19          Cc1ccc(CSc2nc3ccccc3c(=O)n2C)cc1    %        10.9

###

# procedure summary: qHTS Assay for Lipid Storage Modulators in Drosophila S3 Cells
# experimental setup: BODIPY lipid droplet fluorescence, 18-24 h, cells fed with added oleic acid; series mostly up to 46.1 µM
About 2,100 (0.66%) of roughly 320,000 compounds were called active. About 53% were inconclusive and are not listed. The call rests on the fitted dose curve; in most records, active means well fitted inhibition curve with a large enough effect in the signal ratio, with a control signal flat (not every such curve was filed as active); inconclusive means small, poorly fitted or top-dose-only effect, or effect the other way, or a change in a side signal; inactive means flat fitted curve, though single readings scatter; the % refers to the signal ratio. The sample holds actives, similar compounds and a random draw of the others, so the mix is not that of the screen.
Possible outcomes: active, inactive

>>> print(df.to_string())
                                    molecule       cat
 0  C=C(C)CSc1nnc([C@@H]2CCCN2C(=O)OC(C)(C)C)o1  inactive
 1  COc1cc(C(c2sc3ncnn3c2O)N2CCN(c3ccccc3F)CC2)cc(OC)c1OC (centres undefined)  inactive
 2    CCSc1nnc([C@@H]2CCCN2C(=O)OC(C)(C)C)o1    active
 3                  CC(=O)CSc1ncnc2nc[nH]c12  inactive
 4  COc1cccc(NC(=O)CN(C)C(=O)c2ccc(S(=O)(=O)Nc3ccccc3C)cc2)c1  inactive
 5  CC(C)(C)OC(=O)N1CCC[C@H]1c1nnc(SCc2ccccc2)o1  inactive
 6          O=C(CN1C(=O)COc2ccccc21)N1CCOCC1  inactive
 7                  O=C(O)CSc1ncnc2nc[nH]c12    active
 8  CC(C)Sc1nnc([C@@H]2CCCN2C(=O)OC(C)(C)C)o1    active
 9       O=C(CSc1ncnc2nc[nH]c12)c1ccc(Cl)cc1  inactive
10  Cc1cccc(NC(=S)NCCc2ccc(S(N)(=O)=O)cc2)c1C  inactive
11           Cn1nnnc1SCCNCc1ccccc1OCc1ccccc1  inactive
12     Cc1cccc(OCC(=O)NCc2cc(C)nc3ccccc23)c1  inactive
13  Cc1ccc(NC(=O)N2CCN(C(=O)c3ccco3)CC2)cc1Cl  inactive
